Molecular target: p110α/p85α (Homo sapiens (Human))
Sequence (P42336 whole entry): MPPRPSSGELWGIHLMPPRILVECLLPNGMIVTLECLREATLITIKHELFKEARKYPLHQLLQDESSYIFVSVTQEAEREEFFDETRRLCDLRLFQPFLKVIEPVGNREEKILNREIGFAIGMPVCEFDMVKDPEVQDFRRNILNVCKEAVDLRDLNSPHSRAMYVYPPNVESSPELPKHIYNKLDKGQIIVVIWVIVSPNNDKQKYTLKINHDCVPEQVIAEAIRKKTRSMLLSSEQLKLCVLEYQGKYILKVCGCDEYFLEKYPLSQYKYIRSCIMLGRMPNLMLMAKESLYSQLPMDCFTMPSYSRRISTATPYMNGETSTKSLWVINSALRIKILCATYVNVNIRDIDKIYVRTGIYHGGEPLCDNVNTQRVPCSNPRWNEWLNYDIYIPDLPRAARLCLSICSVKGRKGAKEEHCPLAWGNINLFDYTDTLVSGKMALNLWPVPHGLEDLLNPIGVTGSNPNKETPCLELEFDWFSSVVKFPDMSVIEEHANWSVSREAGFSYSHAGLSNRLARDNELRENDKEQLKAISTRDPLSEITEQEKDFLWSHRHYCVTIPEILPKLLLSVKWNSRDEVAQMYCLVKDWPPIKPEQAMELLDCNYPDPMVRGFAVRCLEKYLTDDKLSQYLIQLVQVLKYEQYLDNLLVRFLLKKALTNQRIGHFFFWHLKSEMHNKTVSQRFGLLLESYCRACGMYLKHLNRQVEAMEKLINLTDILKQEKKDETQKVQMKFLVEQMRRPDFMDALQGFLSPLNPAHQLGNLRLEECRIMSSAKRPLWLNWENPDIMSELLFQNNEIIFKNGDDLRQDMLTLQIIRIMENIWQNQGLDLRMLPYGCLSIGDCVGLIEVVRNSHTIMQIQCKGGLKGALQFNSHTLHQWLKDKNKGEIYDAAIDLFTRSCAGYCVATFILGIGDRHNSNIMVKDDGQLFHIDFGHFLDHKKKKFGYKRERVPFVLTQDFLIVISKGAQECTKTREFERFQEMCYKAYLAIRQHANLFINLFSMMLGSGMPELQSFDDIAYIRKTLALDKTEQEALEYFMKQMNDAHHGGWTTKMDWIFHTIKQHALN
Sequence (P27986 whole entry partner): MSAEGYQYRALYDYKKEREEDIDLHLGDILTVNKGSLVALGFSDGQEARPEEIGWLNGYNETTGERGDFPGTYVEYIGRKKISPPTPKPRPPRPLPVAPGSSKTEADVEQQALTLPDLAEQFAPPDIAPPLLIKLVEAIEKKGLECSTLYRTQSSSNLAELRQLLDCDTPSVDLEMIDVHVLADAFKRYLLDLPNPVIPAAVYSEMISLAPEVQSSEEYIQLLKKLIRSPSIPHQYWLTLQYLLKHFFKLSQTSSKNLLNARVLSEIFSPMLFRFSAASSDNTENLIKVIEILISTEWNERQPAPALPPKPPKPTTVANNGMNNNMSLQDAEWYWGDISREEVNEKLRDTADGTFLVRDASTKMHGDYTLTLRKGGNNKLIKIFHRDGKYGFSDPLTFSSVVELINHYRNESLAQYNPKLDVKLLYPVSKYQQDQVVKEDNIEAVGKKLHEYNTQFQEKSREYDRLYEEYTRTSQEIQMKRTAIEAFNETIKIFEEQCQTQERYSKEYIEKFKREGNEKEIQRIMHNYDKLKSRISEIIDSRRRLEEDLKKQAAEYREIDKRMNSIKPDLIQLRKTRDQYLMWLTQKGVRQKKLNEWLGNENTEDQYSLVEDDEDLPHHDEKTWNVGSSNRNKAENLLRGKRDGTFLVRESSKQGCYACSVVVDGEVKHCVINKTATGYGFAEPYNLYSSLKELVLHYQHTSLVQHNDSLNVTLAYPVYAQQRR
Assay: PI 3-Kinase (human) HTRF assay, p110α/p85α
Format: biochemical
Conditions: read-out: PI3K α IC50
ENDPOINT: IC50

Nc1nc2cc(-c3ccc4ncc(-c5ccnc(N6CCOCC6)c5)n4c3)ccc2o1	< 100 nM
Nc1ccc2cc(-c3ccc4nccc(-c5ccncc5)c4c3)ccc2n1	< 1000 nM
CC1CN(C(=O)c2cnc3ccc(-c4ccc5oc(N)nc5c4)cn23)CCN1 (centres unmarked)	< 1000 nM
Nc1nc2ccc(-c3ccc4ncc(C(=O)N5CCOCC5)n4c3)cc2s1	< 1000 nM
Cc1nc2ccc(-c3ccc4oc(N)nc4c3)nn2c1-c1ccncc1	< 100 nM
Nc1nc2cc(-c3ccc4ncc(C(=O)Nc5cccnc5)n4c3)ccc2o1	< 100 nM
Nc1nc2ccc(-c3ccc4ncc(C(=O)N5CCOCC5)n4c3)cc2o1	< 1000 nM
Nc1nc2ccc(-c3ccc4nccc(-c5ccncc5)c4c3)cc2s1	< 100 nM
CCOC(=O)N1CCN(c2cnc3ccc(-c4ccc5oc(N)nc5c4)cc3n2)CC1	< 100 nM
CN1CCCN(C(=O)c2cnc3ccc(-c4ccc5oc(N)nc5c4)cn23)CC1	< 1000 nM
Nc1nc2ccc(-c3ccc4nccc(-c5ccncc5)c4c3)cc2o1	< 100 nM
Nc1nc2cc(-c3ccc4ncc(=O)[nH]c4c3)ccc2o1	< 100 nM
Nc1nc2cc(-c3ccc4ncn(C5CCOCC5)c(=O)c4c3)ccc2o1	< 1000 nM
CCn1cnc2ccc(-c3ccc4oc(N)nc4c3)cc2c1=O	< 100 nM
CN1CCC(N(C)c2ncnc3ccc(-c4ccc5oc(N)nc5c4)cc23)CC1	< 100 nM
Nc1nc2cc(-c3ccc4ncnc(NC5CCN(C(=O)C6CC6)CC5)c4c3)ccc2o1	< 100 nM
Nc1nc2cc(-c3ccc4ncnc(NC5CCOCC5)c4c3)ccc2o1	< 100 nM
Nc1nc2cc(-c3ccc4ncc(N5CCOCC5)n4c3)ccc2o1	< 10000 nM
Nc1nc2cc(-c3ccc4ncc(-c5cn[nH]c5)nc4c3)ccc2o1	< 100 nM
C[C@H]1CN(c2cnc3ccc(-c4ccc5oc(N)nc5c4)cc3n2)CCN1	< 100 nM
